target: α-synuclein (Homo sapiens, UniProt P37840); test: fluorescence anisotropy
pKd: −log10 of the molar value.
MEASURE_NAME: pKd

Inquiry: Can you share its pKd? I mean this binder: GVLWVGSKTR [Y39W β-syn 36D]
Reply text: ~6.00
